experimental protocol: Inhibition of Acetyl-CoA acetyltransferase (unknown origin)
observable: IC50 (nM)

Solved entries (count: 3):
Query IC50 for Cc1ccc(CNC2=Nc3ccccc3NC23CCCCC3)cc1
269

Query IC50 for Clc1ccccc1CNC1=Nc2ccccc2NC12CCNCC2
22

Query IC50 for Cc1ccccc1CNC1=Nc2ccccc2NC12CCNCC2
25

I: CC1CCC2(CC1)Nc1ccccc1N=C2NCc1ccccc1Cl (stereo unspecified)
II: Clc1cccc(CNC2=Nc3ccccc3NC23CCNCC3)c1
For this pair, I and II , which shows a numerically higher IC50? Indicate your choice by writing its label.
I
(I: 171 nM, II: 22 nM)

Reference for the values: BindingDB's records for PubMed 38171251
